Source listed as patent US20240182536A1.

Form field: pKd (one value per entry).
- assay_system: T1, human IL-18 binding protein (IL-18BP) (human, UniProt O95998 31-194)
- T1 construct: also called hu IL-18BP; hIL18BP
- T1 sequence (looked up): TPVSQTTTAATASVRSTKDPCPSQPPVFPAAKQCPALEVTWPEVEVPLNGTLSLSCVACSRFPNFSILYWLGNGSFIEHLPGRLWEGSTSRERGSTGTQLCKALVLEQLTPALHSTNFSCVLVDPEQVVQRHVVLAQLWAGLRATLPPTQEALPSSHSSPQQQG
- protocol: Octet BLI
In plain terms, pKd is the concentration in mol/L turned into minus its base-10 logarithm.

Sample records with pKd:
>  <binder>
IL-18 variant G3T, M60K (ligand) YFTKLESKLSVIRNLNDQVLFIDQGNRPLFEDMTDSDMRDNAPRTIFIISMYKDSQPRGKAVTISVKSEKISTLSSENKIISFKEMNPPDNIKDTKSDIIFFQRSVPGHDNKMQFESSSYEGYFLASEKERDLFKLILKKEDELGDRSIMFTVQNED

>  <pKd>
6.11

$$$$
>  <binder>
IL-18 variant G3T, E6K, K53A (ligand, also called G3T, K53A, E6K) YFTKLKSKLSVIRNLNDQVLFIDQGNRPLFEDMTDSDMRDNAPRTIFIISMYADSQPRGMAVTISVKSEKISTLSSENKIISFKEMNPPDNIKDTKSDIIFFQRSVPGHDNKMQFESSSYEGYFLASEKERDLFKLILKKEDELGDRSIMFTVQNED

>  <pKd>
8.22

$$$$

Quick one: pKd of IL-18 variant G3V, E6K, K53A (ligand, also called G3V, K53A, E6K) YFVKLKSKLSVIRNLNDQVLFIDQGNRPLFEDMTDSDMRDNAPRTIFIISMYADSQPRGMAVTISVKSEKISTLSSENKIISFKEMNPPDNIKDTKSDIIFFQRSVPGHDNKMQFESSSYEGYFLASEKERDLFKLILKKEDELGDRSIMFTVQNED ?
7.72
